Reference source for all entries: PubChem BioAssay (NCATS)

assay: BET inhibitor-based combinations targeting novel dependencies in MECOM-rearranged (r) AML: MV-4-11 cell line (AID 2202233); details: MV-4-11 AML viability, CellTiter-Glo luminescence, 48 h; series mostly up to 46 µM; further: nearly all actives have a fitted effect of over 45% in size; further: potency means the concentration at half of the fitted maximal effect
Records with an inconclusive call do not appear. Calls of active or inactive are those of the source. The call rests on the fitted dose curve; in most records, active means well fitted inhibition curve with a large enough effect; inconclusive means small, poorly fitted or top-dose-only effect; inactive means no such curve, though single readings can be large or run the other way.
readoutLabel: Potency

Would you please look over these solved cases?
* O=Nc1c(-c2c(O)[nH]c3cc(Br)ccc23)[nH]c2ccccc12 | 0.263 µM (active)
* Cc1ccccc1C(C(=O)NC1CCCCC1)N(C(=O)Cn1ccnc1C)c1cccc(F)c1 (centres undefined) | inactive
* C[C@@H](Oc1cc(-n2cnc3ccc(CN4CCN(C)CC4)cc32)sc1C(N)=O)c1ccccc1C(F)(F)F | 0.105 µM (active)
* COc1ccc(C(=O)C2CCN(CC(=O)N(Cc3nc4c(c(=O)[nH]3)COCC4)CC3CC3)CC2)cc1 | inactive
* CN(C(Cc1ccc(OS(=O)(=O)c2cccc3cnccc23)cc1)C(=O)N1CCN(c2ccccc2)CC1)S(=O)(=O)c1cccc2cnccc12 (centres undefined) | 7.42 µM (active)
* Oc1ccc(C2CNCCc3c2cc(O)c(O)c3Cl)cc1 (centres undefined) | inactive
* COc1nc(C)cnc1NS(=O)(=O)c1cccnc1-c1ccc(-c2nnco2)cc1 | inactive
* CC(O)c1cc(C(=O)N[C@@H](C)Cn2ccc(-c3ccc(C#N)c(Cl)c3)n2)n[nH]1 (some centres undefined) | inactive

Let us examine a further case.
**Query** Please look at this molecule and report its Potency: CC(C)[C@H](C(=O)Nc1ccc(C(=O)NO)cc1)c1ccccc1
**Result** 0.372 µM (active)

###

assay: qHTS for Inhibitors of the Aldehyde Dehydrogenase Family (ALDH1A2, ALDH1A3, ALDH2, ALDH3A1) (AID 2061307); conditions: ALDH inhibition qHTS; series mostly up to 50.3 µM; further: nearly all actives have a fitted effect of over 50% in size
Results filed as inconclusive are left out. Activity calls are given as the source filed them. The call rests on the fitted dose curve; in most records, active means well fitted inhibition curve with a large enough effect; inconclusive means small, poorly fitted or top-dose-only effect; inactive means no such curve, though single readings can be large or run the other way.
The reply should be one of these categories: active, inactive

Some solved cases for reference:
• O=C(O)c1cccc(-c2noc(-c3cccc(Cl)c3)n2)c1 = active
• CCOc1ccc(Nc2nc(-c3c(C)nc4ccccn34)cs2)cc1 = active
• O=C(OCC#CCSc1nnc(-c2ccco2)o1)c1ccc(F)cc1 = inactive
• Fc1ccc(N2CCN(CCC3OCCc4ccccc43)CC2)cc1 (configuration not stated) = inactive
• Cc1ccc(OCCn2c(CCNC(=O)c3ccccc3C(F)(F)F)nc3ccccc32)cc1 = inactive

**Query** Lab log entry: CC1(C)CC2CC(C)(CN2S(=O)(=O)c2ccc(C(=O)Nc3cccc(S(=O)(=O)N4CCOCC4)c3)cc2)C1 (configuration not stated) — outcome as called in the assay?
**Result** active

**Query** Lab log entry: Cc1onc(-c2c(Cl)cccc2Cl)c1C(=O)N[C@@H]1C(=O)N2[C@@H]1SC(C)(C)[C@@H]2C(=O)O — outcome as called in the assay?
**Result** inactive

###

target: Aldehyde dehydrogenase, mitochondrial (Homo sapiens); experiment: qHTS for Inhibitors of the Aldehyde Dehydrogenase Family (ALDH2) Primary screen (AID 2061308); details: ALDH2 enzyme inhibition qHTS, 1536-well; series mostly up to 56 µM;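 further: plate controls were vehicle for no effect and reference inhibitor for full effect; nearly all actives have a fitted effect of over 55% in size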
Results filed as inconclusive are left out. The source made the active and inactive calls. Calls follow the shape of the dose curve; as a rule, active = well fitted inhibition curve with a large enough effect; inconclusive = small, poorly fitted or top-dose-only effect; inactive = flat fitted curve, though single readings scatter.
readoutLabel: activity change, negative = inhibition

• C[C@H]1CCN2C[C@]34C[C@@]5(C(=O)Nc6c5ccc5c6OC=CC(C)(C)O5)C(C)(C)C3C[C@]12C(=O)N4C (stereo partly drawn) = inactive
• O=C(Nc1ncc(-c2cc(C(F)F)nn2-c2c(Cl)cccc2Cl)s1)C1CC1 = inactive
• C=C(C(=O)OC)C1C(O)CC2(C)C(=O)CCC(O)(CO)C2C1O (stereo not drawn) = inactive
• O=C(c1ccc(-c2cc(O)c3ncccc3c2)cc1)N1CCNCC1 = inactive
• Nc1nc(F)nc2c1ncn2[C@@H]1O[C@H](CO)[C@@H](O)[C@@H]1O = inactive

**Query** Please look at this compound and report its activity change, negative = inhibition: C=C1CC[C@@H]2[C@](C)(CC[C@H](O)[C@@]2(C)CCC=C(C)C)[C@@H]1Cc1c[nH]c2ccccc12
**Result** inactive

**Query** Please look at this compound and report its activity change, negative = inhibition: CC(=O)O[C@H]1C[C@@H](O)C(C)(C)C2C[C@@H](OC(C)=O)[C@]3(C)C(CC[C@@]4(C)[C@H](c5ccoc5)OC(=O)[C@H]5O[C@]543)[C@]21C (stereo partly drawn)
**Result** inactive

**Query** Please look at this compound and report its activity change, negative = inhibition: NC(=NCCCCCCN=C(N)/N=C(\N)Nc1ccc(Cl)cc1)/N=C(\N)Nc1ccc(Cl)cc1
**Result** inactive

###

biological target: Retinaldehyde dehydrogenase 3 (Homo sapiens) (UniProt P47895); assay: qHTS for Inhibitors of the Aldehyde Dehydrogenase Family (ALDH1A3) Primary screen (AID 2061315); conditions: ALDH inhibition qHTS; series mostly up to 56 µM;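 further: plate controls were DMSO vehicle for no effect and reference inhibitor for full effect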
Records with an inconclusive call do not appear. Calls of active or inactive are those of the source. The call rests on the fitted dose curve; in most records, active means well fitted inhibition curve with a large enough effect; inconclusive means small, poorly fitted or top-dose-only effect; inactive means no such curve, though single readings can be large or run the other way.
readoutLabel: activity change, negative = inhibition

Would you please look over these solved cases?
- C=CC(C)(O)CC/C=C(/C)C(=O)OC1C(OC2OCC(OC3OC(CO)C(O)C(O)C3O)C(OC3OCC(O)C(OC4OC(C)C(O)C(O)C4O)C3O)C2O)COC(OC(=O)C23CCC(C)(C)CC2C2=CCC4C5(C)CCC(OC6OC(CO)C(OC7OC(CO)C(O)C(OC8OCC(O)C(O)C8O)C7O)C(O)C6O)C(C)(C)C5CCC4(C)C2(C)CC3O)C1O (stereo unspecified): 8.04% [at 11.2 µM] (inactive)
- CC(C)(C)OC(=O)N1CCN(c2ccc(NCc3cccc(-c4ccc(C#N)cc4)n3)cc2)CC1: inactive
- O=C(OC[C@H]1O[C@H](O[C@]2(CO)O[C@H](CO)[C@@H](O)[C@@H]2O)[C@H](O)[C@@H](O)[C@@H]1O)c1ccc(O)cc1: inactive
- O=C(OCC12OC1C=CC(OC(=O)c1ccccc1)C2O)c1ccccc1 (stereo unspecified): inactive
- COc1cnc(-n2cnc(C)n2)c2[nH]cc(C(=O)C(=O)N3CCN(C(=O)c4ccccc4)CC3)c12: inactive

Let us examine a further case.
**Query** Please look at this compound and report its activity change, negative = inhibition: COC(=O)C1=CO[C@@H](O[C@@H]2O[C@H](CO)[C@@H](O)[C@H](O)[C@H]2O)[C@@H]2C(COC(C)=O)=C[C@H](O)[C@H]12
**Result** inactive

###

activation values for the compounds below.
target: Cellular tumor antigen p53 (Homo sapiens); experiment: Primary qHTS for small molecule compounds that upregulate eGFP-tagged delta133p53alpha (in N-terminal) cells. (AID 2060322); conditions: NCI-H358 eGFP-delta133p53alpha fluorescence, 24 h; stronger effect = higher value;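 further: cells pre-induced with doxycycline then dosed without doxycycline; 0% = DMSO vehicle and 100% = reference activator; nearly all actives have a fitted effect of over 75% in size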
Inconclusive results are not listed.
# unit: % | format: bare number

* CC(=O)O[C@@H]1C[C@@]23C[C@@]24CC[C@H](OC2OC[C@@H](O)[C@H](O)[C@H]2O)C(C)(C)[C@@H]4CC[C@H]3[C@]2(C)CC3OC4(C[C@@H](C)C3[C@@]12C)OCC1(C)OC14 (some centres undefined) | 13.4
* CN[C@H]1[C@@H](O)[C@@H]2O[C@@H]3O[C@H](C)CC(=O)[C@]3(O)O[C@@H]2[C@@H](NC)[C@H]1O | -7.34
* COC(=O)[C@H](OC(C)=O)[C@H]1C(C)(C)C(=O)[C@H]2CC3=C4CC(=O)O[C@@H](c5ccoc5)[C@]4(C)CCC3[C@@]1(C)C2=O (some centres undefined) | 2.68
* CCOc1ccc(NC(=O)CC(C)O)cc1 (centres undefined) | -0.837
* N[C@H](C(=O)O)[C@H]1C[C@@H]1C(=O)O | 6.82
* COC(=O)C1=CO[C@@H](O[C@@H]2O[C@H](CO)[C@@H](O)[C@H](O)[C@H]2O)[C@@H]2[C@@H](C(=O)OC)[C@@H](O)C(O)[C@H]12 (some centres undefined) | -19.8
* CC(N)CCCC(C)(C)O (centres undefined) | -2.82
* CC(C)c1nc(N(C)S(C)(=O)=O)nc(-c2ccc(F)cc2)c1/C=C/[C@@H](O)C[C@@H](O)CC(=O)O | -19
* CC(C)c1cc2c(c(O)c1O)[C@@]13CCCC(C)(C)C1[C@@H](O)[C@@H]2OC3=O (some centres undefined) | -5.34
* CCC(C)C(=O)OC1CC(O)C23C4OCC5(C(O)CC2C1(C)C(O)O4)C3C(=O)C(O)C1(C)C(O)(c2ccoc2)CC2OC251 (centres undefined) | 5.34

**Query** Please look at this compound and report its activation: CC1(C)CC[C@]2(C(=O)O[C@@H]3O[C@H](CO)[C@@H](O)[C@H](O)[C@H]3O)CC[C@]3(C)C(=CCC4[C@@]5(C)C[C@@H](O)[C@H](O)[C@@](C)(CO)C5[C@H](O)C[C@]43C)C2[C@@H]1O (some centres undefined)
**Result** -5.34

**Query** Please look at this compound and report its activation: NC[C@H]1O[C@H](O[C@@H]2[C@@H](O)[C@@H](O[C@H]3O[C@H](CO)[C@@H](O)[C@H](N)[C@@H]3O)[C@H](N)C[C@@H]2N)[C@H](O)[C@@H](O)[C@H]1O
**Result** 5.09

**Query** Please look at this compound and report its activation: COc1c2c(nc3occc13)C(CC=C(C)C)(OC)C(O)CC2 (centres undefined)
**Result** 5.34

**Query** Please look at this compound and report its activation: CNC(C)C(=O)NC(C(=O)N1CCCC1C(=O)Nc1cccc2ncccc12)C(C)C (centres undefined)
**Result** -21
